For each entry below, report its GI50 value.
# assay-system: BaF3 cell lines stably transfected with kinase EGFR L858R (Homo sapiens, UniProt P00533, L858R, cells depend on it)
# Sequence (P00533 whole entry L858R): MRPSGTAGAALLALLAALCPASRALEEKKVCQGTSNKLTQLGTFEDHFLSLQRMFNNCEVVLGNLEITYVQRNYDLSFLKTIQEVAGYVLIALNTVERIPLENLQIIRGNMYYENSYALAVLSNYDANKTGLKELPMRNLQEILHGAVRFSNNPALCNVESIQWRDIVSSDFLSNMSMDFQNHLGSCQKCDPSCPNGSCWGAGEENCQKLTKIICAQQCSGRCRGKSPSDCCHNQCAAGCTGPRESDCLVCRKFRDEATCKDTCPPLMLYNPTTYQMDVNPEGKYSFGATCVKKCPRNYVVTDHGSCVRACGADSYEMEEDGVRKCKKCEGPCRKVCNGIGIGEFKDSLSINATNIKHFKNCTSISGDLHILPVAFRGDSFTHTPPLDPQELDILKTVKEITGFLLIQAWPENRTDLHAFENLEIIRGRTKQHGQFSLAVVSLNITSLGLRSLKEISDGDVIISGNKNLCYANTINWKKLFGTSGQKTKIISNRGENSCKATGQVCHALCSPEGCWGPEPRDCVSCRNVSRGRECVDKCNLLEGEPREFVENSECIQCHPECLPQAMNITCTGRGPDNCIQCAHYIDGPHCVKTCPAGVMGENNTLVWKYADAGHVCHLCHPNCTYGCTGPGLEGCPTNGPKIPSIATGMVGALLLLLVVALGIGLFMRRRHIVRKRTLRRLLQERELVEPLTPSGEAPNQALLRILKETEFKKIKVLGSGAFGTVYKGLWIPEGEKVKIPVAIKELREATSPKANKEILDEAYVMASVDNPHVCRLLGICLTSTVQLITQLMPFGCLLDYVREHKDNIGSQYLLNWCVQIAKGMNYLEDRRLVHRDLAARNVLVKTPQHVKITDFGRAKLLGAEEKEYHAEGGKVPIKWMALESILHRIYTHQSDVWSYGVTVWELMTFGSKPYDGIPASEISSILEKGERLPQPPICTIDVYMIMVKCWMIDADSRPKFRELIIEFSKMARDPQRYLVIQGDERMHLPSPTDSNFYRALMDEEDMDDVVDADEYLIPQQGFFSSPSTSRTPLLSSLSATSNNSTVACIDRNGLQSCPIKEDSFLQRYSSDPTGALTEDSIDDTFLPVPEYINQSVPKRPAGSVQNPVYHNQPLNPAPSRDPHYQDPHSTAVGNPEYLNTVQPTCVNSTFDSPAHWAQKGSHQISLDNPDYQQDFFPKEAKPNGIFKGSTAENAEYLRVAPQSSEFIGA
# protocol: Growth inhibition of BaF3 cell line stably transfected with kinase EGFR L858R (MTS)
# Assay type: cell-based
# assay-setup: 48 h, read-out: growth inhibitory activity IC50, L858R

Determine its reported GI50: `C=Cc1cnc(Nc2cc3c(cc2C)CCN(C)C3)nc1Nc1ccc2nccnc2c1N(C)S(C)(=O)=O` 50 to 500 nM

Provide GI50 value for the following compound: C=Cc1cnc(Nc2cc(CC)c(N3CCC(N(C)C)C3)cc2OC)nc1Nc1ccc2nccnc2c1NS(C)(=O)=O (stereo not shown) ≤ 50 nM

Give the reported value of GI50 for this record: `C=Cc1cnc(Nc2ccc3c(c2)CN(C)CC3)nc1Nc1ccc2nccnc2c1N(C)S(C)(=O)=O` ≤ 50 nM

Output measured GI50 for this item: `C=Cc1cnc(Nc2cc(CC)c(N3CCC(N4CCN(C)CC4)CC3)nc2OC)nc1Nc1ccc2nccnc2c1S(C)(=O)=O` 500 to 2500 nM

State, in one line, measured GI50 of `C=Cc1cnc(Nc2cc(C3CC3)c(N3CCC(N4CCN(C)CC4)CC3)cc2OC)nc1Nc1ccc2nccnc2c1S(=O)(=O)C(C)C` 50 to 500 nM

Give a short answer stating reported GI50 for `C=Cc1cnc(Nc2cc(CC)c(N3CCC(N(C)C)CC3)cc2OC)nc1Nc1ccc2nccnc2c1N(C)S(C)(=O)=O` . ≤ 50 nM

Answer with the recorded GI50 for the compound listed here: `C=Cc1cnc(Nc2ccn(CC)n2)nc1Nc1ccc2nccnc2c1N(C)S(C)(=O)=O` 50 to 500 nM

====

Please respond with reported GI50 for every item in the list.
# assay-system: BaF3 cell lines stably transfected with kinase EGFR Del/T790M (Homo sapiens, UniProt P00533, T790M, cells depend on it, form not given)
# Sequence (P00533 with tags, fused parts or gaps DEL746-750/T790M, form open): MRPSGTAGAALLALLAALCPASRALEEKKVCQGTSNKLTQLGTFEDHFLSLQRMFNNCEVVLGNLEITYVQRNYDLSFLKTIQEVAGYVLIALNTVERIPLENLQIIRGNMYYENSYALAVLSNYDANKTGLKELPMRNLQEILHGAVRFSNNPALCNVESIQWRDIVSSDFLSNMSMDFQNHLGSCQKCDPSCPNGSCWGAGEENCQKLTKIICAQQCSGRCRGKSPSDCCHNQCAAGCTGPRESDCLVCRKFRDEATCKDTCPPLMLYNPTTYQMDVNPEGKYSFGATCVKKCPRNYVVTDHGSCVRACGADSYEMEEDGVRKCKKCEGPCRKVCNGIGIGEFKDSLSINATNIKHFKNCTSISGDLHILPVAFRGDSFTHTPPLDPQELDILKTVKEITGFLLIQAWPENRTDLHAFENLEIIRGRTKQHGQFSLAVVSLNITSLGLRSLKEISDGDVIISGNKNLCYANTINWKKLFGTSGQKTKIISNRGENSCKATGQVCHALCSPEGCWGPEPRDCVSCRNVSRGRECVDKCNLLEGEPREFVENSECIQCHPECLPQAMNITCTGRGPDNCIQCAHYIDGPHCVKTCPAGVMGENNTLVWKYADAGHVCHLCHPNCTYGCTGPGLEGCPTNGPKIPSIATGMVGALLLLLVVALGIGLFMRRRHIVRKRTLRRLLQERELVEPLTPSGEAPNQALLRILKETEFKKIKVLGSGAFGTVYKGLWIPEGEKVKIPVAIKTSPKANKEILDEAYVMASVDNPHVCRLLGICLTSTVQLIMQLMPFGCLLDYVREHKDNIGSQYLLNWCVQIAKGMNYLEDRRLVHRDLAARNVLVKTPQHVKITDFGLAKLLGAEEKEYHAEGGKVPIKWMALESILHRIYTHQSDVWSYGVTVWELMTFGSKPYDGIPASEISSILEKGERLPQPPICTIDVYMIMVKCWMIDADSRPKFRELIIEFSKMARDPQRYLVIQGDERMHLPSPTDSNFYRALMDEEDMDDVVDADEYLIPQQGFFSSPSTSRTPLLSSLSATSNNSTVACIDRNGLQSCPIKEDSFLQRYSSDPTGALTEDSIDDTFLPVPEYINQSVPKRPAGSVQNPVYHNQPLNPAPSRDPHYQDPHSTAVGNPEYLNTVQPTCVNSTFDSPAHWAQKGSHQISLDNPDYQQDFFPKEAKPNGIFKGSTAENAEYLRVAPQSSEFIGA
# protocol: Growth inhibition of BaF3 cell line stably transfected with kinase EGFR Del/T790M (MTS)
# Type: cell-based
# assay-setup: 48 h, read-out: growth inhibitory activity IC50, Del/T790M

Please give the documented GI50 of C=C(C)c1cnc(Nc2cc(CC)c(N3CCC(N4CCN(C)CC4)CC3)cc2OC)nc1Nc1ccc2nccnc2c1P(C)(C)=O [Compound I-15] ≤ 0.05 µM

Could you please provide reported GI50 for C=Cc1cnc(Nc2cc(CC)c(N3CCC(N(C)C)C3)cc2OC)nc1Nc1ccc2nccnc2c1NS(C)(=O)=O (stereo not shown) [II-40] ? Thanks! ≤ 0.05 µM

Give GI50 for C=Cc1cnc(Nc2cc(C)c(N3CCC(N4CCN(C)CC4)CC3)cc2OC)nc1Nc1ccc2nccnc2c1N(C)S(C)(=O)=O [II-15] ≤ 0.05 µM

Tell me GI50 reported for C=Cc1cnc(Nc2cc[nH]n2)nc1Nc1ccc2nccnc2c1N(C)S(C)(=O)=O [II-59] 0.5 to 2.5 µM

====

# assay-system: BaF3 cell lines stably transfected with kinase EGFR Del/T790M/C797S (Homo sapiens, UniProt P00533, T790M/C797S, cells depend on it, form not given)
# Sequence (P00533 with tags, fused parts or gaps DEL746-750/T790M/C797S, form open): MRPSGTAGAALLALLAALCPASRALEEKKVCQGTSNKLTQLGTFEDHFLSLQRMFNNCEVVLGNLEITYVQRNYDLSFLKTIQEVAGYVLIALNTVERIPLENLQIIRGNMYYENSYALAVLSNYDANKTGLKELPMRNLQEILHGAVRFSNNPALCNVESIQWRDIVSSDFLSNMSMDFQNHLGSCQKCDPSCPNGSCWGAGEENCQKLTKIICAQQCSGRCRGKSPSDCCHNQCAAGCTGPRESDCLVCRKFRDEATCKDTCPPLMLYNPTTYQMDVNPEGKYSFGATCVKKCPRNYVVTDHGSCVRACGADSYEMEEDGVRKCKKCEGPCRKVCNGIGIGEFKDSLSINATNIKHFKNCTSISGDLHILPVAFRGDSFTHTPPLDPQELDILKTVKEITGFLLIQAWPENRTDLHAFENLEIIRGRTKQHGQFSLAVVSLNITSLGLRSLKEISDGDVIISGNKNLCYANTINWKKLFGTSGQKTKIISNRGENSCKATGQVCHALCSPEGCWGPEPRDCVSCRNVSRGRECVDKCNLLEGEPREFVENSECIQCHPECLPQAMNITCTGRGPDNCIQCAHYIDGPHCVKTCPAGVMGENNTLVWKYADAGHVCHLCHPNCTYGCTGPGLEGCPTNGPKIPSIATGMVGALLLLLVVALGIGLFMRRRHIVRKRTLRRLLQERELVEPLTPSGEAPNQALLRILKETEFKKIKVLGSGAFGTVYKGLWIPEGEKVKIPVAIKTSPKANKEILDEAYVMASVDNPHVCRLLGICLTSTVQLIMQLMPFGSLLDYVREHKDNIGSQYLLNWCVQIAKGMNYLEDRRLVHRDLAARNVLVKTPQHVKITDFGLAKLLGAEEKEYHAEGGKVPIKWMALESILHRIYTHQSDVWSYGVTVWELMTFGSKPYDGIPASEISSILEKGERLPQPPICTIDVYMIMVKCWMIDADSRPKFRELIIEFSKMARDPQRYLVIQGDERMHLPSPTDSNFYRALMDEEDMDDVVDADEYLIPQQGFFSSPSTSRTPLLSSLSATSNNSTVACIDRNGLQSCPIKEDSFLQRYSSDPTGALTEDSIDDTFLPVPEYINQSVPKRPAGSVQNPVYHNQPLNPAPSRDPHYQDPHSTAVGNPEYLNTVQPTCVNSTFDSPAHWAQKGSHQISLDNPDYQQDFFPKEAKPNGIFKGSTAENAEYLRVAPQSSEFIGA
# protocol: Growth inhibition of BaF3 cell line stably transfected with kinase EGFR Del/T790M/C797S (MTS)
# Format: cell-based
# assay-setup: 48 h, read-out: growth inhibitory activity IC50, Del/T790M/C797S
measured-attribute: GI50

Determine its reported GI50: `C=Cc1cnc(Nc2cc(CC)c(N3CCC(N4CCN(C)CC4)CC3)cc2OC)nc1Nc1ccc2nccnc2c1N(CC)S(C)(=O)=O` ≤ 0.05 µM

Tell me measured GI50 for `C=Cc1cnc(Nc2cc(C)c(N3CCC(N4CCN(C)CC4)CC3)cc2OC)nc1Nc1ccc2nccnc2c1N(C)S(C)(=O)=O` please. ≤ 0.05 µM

Give a short answer stating reported GI50 for `C=Cc1cnc(Nc2cc(CC3CC3)c(N3CCC(N4CCN(C)CC4)CC3)cc2OC)nc1Nc1ccc2nccnc2c1P(C)(C)=O` . ≤ 0.05 µM

State its GI50: C=Cc1cnc(Nc2cn(CC)nc2C)nc1Nc1ccc2nccnc2c1N(C)S(C)(=O)=O [II-67] 0.05 to 0.5 µM

Consider the molecule `C=Cc1cnc(Nc2cc(CC)c(N3CCC(N4CCN(C)CC4)CC3)cc2OC(F)(F)F)nc1Nc1ccc2nccnc2c1S(=O)(=O)NC` and give its recorded GI50. 0.5 to 2.5 µM

Please indicate GI50 recorded for `C=Cc1cnc(Nc2cc(CC)c(N3CCC(N4CCN(C)CC4)CC3)cc2OC)nc1Nc1ccc2nccnc2c1NS(C)(=O)=O` 0.05 to 0.5 µM

Return value of GI50 for input C=Cc1cnc(Nc2ccc3c(c2)C(C)CN(C)CC3)nc1Nc1ccc2nccnc2c1N(C)S(C)(=O)=O (centres unmarked) , no commentary. 0.05 to 0.5 µM

Specify measured GI50 for `C=Cc1cnc(Nc2cc(CC)c(N3CCC(N4CCN(C)CC4)CC3)cc2OC)nc1Nc1ccc2nccnc2c1S(=O)(=O)NC(C)C` . 0.5 to 2.5 µM

Please give the documented GI50 of `C=Cc1cnc(Nc2cc(CC)c(N3CCC(N4CCN(C)CC4)CC3)nc2OC)nc1Nc1ccc2nccnc2c1N(C)S(C)(=O)=O` 0.05 to 0.5 µM

Give me measured GI50, please, for this molecule: `C=Cc1cnc(Nc2ccc(N3CCC(N4CCN(C)CC4)CC3)c(CC)c2)nc1Nc1ccc2nccnc2c1S(=O)(=O)NC` 0.05 to 0.5 µM

Given `C=C(C)c1cnc(Nc2cn[nH]c2)nc1Nc1ccc2nccnc2c1N(C)S(C)(=O)=O` , respond with its GI50. ≤ 0.05 µM

Given the molecule `C=Cc1cnc(Nc2cc(C)c(N3CCC(N4CCN(C)CC4)CC3)cc2OC)nc1Nc1ccc2nccnc2c1S(=O)(=O)C(C)C` , write its reported GI50. 0.5 to 2.5 µM

Indicate its recorded GI50; the molecule in question is `C=Cc1cnc(Nc2cc(C3CC3)c(N3CCC(N4CCN(C)CC4)CC3)cc2OC)nc1Nc1ccc2nccnc2c1P(C)(C)=O` 0.05 to 0.5 µM

Recall and state the measured GI50 for `C=C(C)c1cnc(Nc2cc(C)c(N3CCC(N4CCN(C)CC4)CC3)nc2OC)nc1Nc1ccc2nccnc2c1P(C)(C)=O` . 0.5 to 2.5 µM
